# System: CYP2B6 mRNA
# assay.overview: CYP450 induction in cultured human hepatocytes, mRNA by qRT-PCR
# Format: cell-based
# assay.context: hepatocytes HC7‐8; ± standard error; read-out: Basic kinetic model: EC50
measured.parameter: pEC50
# reply with the number alone; pEC50 is -log10 of concentration in mol/L

Input line: Reported pEC50 for CC(N)Cc1cccc(C(F)(F)F)c1.Cl (stereo not shown) : what is it?
Output line: 4.97

* * *

# measurement.target: CYP2D6 (Homo sapiens)
# Sequence (P10635 whole entry): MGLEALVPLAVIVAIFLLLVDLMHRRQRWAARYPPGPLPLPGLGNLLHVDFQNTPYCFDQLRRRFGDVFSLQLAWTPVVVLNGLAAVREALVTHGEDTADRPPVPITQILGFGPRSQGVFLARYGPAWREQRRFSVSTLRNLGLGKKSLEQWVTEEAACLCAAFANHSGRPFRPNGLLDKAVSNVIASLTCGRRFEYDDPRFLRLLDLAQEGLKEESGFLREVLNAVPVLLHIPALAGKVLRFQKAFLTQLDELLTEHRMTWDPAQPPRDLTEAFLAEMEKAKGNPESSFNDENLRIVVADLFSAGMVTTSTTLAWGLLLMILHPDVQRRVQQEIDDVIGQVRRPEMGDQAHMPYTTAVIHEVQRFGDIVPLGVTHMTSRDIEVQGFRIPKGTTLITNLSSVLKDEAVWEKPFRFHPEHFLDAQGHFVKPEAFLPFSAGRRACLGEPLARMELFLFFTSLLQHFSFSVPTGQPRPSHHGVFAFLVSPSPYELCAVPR
# assay.overview: Time- and metabolism-dependent inhibition, 30-min preincubation with or without NADPH (dextromethorphan O-demethylation)
# assay.context: IC50 (- NADPH), 30-min preincubation in the absence of NADPH; human liver microsomes
measured.parameter: pIC50
In textbook form, pIC50 equals minus log to base ten of the concentration in mol/L.

Input line: // pIC50 lookup, key: CCNC(C)Cc1cccc(C(F)(F)F)c1 (racemic) [FFA, reference compound]
Output line: 5.35
